biological target: EGFR Exon19Del (Homo sapiens, UniProt P00533, DEL746-750); construct: purchased Carna Bio; assay: Inhibition of EGFR Exon19Del biochemical enzymatic activity (HTRF); details: EGFR Del19, 1 mM ATP, 1 h, room temperature, read-out: IC50 @Del19
Sequence (P00533 with tags, fused parts or gaps DEL746-750 limits assumed): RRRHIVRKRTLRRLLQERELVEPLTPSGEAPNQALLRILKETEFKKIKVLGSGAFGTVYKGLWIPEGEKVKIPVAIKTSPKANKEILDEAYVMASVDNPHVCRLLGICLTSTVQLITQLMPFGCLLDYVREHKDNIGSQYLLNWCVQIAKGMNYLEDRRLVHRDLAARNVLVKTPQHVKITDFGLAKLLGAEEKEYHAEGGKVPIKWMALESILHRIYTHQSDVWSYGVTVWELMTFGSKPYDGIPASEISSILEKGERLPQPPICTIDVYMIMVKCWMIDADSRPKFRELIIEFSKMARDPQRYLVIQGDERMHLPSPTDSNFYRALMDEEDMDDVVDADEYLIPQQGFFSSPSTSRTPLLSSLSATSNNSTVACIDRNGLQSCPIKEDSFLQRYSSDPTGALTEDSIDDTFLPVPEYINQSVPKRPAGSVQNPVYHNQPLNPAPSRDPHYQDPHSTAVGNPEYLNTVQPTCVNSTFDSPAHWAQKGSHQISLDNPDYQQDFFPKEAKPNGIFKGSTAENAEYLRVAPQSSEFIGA
reportedProperty: IC50 (nM)
All answers are understood in nM, so give the number only.

// solved cases for IC50 follow
molecule="CN1CC2CC1CN2c1ccc2nc3n(c2c1)C12CCC(CN(CCOc4c(cnn4C)-c4cc(cn(C)c4=O)C(=O)N3)C1)C2 (single isomer, unassigned) [Example A105B]" recordedvalue=1.6
molecule="Cn1ncc2c1OCCN1CC3CCC(CC3)(C1)n1c(nc3ccc(N4CCOCC4)cc31)NC(=O)c1cc-2c(=O)n(C)c1 [Example A74]" recordedvalue=24
molecule="Cn1ncc2c1OCCN1CC3CCC(CC3)(C1)n1c(nc3cc(F)ccc31)NC(=O)c1cc-2c(=O)n(C)c1 [Example A116]" recordedvalue=464

Provide one value: measured IC50 of C[C@@H]1CCCOc2c(cnn2C)-c2cc(cn(C)c2=O)C(=O)Nc2nc3ccc(N4CCC5(CN(C)C5)C4)cc3n2C1 [Example A43]
4.5

Please look at this molecule and report its IC50: CN1CC2(C1)CN(c1ccc3nc4n(c3c1)C13CCC(CN(CCOc5c(cnn5C)-c5cc(cn(C)c5=O)C(=O)N4)C1)C3)C2 (single isomer, unassigned) [Example A92B]
1.5
